# Lookup of reported melting point keyed by entry

{"columns": ["Smiles structure", "melting point"],
 "data": [
  ["O=C([O-])C1=CS[C@@H]2/C(=C\\c3ccc4nc5n(c4c3)CCS5)C(=O)N12.[Na+]", "> 250 °C"]
]}

IN: Item under review: "Cc1nc2nc(/C=C3/C(=O)N4C(C(=O)[O-])=CS[C@H]34)nn2c2c1CCC2.[Na+]" . Reported melting point?
OUT: 250 °C (dec.)

IN: Item under review: "O=C([O-])C1=CS[C@@H]2/C(=C\c3ccc4nc5n(c4c3)CCCS5)C(=O)N12.[Na+]" . Reported melting point?
OUT: > 250 °C
